biological target: Intercellular adhesion molecule (ICAM-1), Integrin alpha-L/beta-2 (Homo sapiens, UniProt P05107+P20701); experiment: Inhibitory concentration against leukocyte function-associated antigen-1 in HSB-2 human lymphoblast and H1HeLa cell adhesion assay
Sequence (P20701 whole entry): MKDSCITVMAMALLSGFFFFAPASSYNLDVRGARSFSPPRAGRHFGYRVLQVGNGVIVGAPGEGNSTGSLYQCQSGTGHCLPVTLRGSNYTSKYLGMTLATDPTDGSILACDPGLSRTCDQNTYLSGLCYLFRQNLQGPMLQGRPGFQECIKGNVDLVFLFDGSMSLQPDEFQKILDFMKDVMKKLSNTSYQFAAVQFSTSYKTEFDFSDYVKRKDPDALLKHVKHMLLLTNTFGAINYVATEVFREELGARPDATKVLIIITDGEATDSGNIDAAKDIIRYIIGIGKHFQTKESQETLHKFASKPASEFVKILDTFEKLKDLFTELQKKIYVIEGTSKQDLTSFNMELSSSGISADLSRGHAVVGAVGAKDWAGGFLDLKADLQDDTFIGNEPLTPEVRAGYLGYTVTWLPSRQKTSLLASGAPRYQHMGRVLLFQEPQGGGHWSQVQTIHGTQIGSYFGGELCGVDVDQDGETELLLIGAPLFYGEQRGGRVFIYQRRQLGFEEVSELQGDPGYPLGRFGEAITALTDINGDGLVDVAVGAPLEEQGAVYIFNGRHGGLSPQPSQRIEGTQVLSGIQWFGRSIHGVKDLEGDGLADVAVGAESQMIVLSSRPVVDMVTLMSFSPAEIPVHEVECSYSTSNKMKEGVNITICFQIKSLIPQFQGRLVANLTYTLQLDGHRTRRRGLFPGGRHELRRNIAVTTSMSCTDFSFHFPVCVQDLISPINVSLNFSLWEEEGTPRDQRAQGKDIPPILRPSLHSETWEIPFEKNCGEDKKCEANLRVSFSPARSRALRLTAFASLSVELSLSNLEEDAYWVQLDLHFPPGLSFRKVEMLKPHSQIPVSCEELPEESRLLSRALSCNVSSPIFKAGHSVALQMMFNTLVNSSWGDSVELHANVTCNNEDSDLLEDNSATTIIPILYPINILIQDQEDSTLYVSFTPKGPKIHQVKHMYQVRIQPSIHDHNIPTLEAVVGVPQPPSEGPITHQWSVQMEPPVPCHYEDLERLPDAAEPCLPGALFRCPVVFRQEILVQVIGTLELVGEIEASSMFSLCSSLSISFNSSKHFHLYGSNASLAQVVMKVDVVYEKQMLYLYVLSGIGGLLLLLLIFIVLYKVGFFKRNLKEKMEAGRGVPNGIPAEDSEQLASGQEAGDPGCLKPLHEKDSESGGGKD
Sequence (P05362 whole entry, further chain): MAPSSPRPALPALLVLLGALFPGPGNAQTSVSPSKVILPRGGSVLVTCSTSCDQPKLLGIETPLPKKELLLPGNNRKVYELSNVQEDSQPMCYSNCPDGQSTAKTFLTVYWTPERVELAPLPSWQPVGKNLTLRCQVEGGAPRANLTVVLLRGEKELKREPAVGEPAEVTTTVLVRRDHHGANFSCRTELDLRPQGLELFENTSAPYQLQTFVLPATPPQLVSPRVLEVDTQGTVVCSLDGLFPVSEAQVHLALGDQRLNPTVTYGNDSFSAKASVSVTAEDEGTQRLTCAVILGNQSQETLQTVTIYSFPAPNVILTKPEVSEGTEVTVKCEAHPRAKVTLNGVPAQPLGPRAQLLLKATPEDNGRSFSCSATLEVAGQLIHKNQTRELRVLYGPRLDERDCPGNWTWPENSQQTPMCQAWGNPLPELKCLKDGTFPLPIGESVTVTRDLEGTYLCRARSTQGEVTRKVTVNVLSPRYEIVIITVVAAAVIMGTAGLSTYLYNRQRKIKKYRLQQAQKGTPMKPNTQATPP
Sequence (P05107 whole entry): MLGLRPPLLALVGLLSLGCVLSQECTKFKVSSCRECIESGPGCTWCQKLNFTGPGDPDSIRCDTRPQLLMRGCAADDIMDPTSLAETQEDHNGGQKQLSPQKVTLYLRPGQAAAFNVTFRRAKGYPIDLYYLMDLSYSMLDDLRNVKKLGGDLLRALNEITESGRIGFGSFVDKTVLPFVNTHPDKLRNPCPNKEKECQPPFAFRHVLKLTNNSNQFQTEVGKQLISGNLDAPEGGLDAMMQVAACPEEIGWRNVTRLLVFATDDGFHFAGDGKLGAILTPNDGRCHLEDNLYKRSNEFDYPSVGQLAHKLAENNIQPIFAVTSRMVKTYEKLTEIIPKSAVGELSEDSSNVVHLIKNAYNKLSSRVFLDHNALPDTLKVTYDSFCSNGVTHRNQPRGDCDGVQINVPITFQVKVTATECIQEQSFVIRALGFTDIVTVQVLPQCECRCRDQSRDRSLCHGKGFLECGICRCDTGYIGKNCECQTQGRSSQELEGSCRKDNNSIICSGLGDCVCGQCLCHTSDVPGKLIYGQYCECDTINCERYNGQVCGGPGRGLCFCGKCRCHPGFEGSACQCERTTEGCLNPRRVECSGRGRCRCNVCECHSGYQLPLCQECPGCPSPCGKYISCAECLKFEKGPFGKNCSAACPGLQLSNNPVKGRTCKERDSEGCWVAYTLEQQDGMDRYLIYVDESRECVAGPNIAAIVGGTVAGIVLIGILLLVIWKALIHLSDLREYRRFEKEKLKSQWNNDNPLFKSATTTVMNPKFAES
QUANTITY: IC50 (nM)
State the answer as a number, implicitly in nM.

O=C1[C@H]2C[C@@H](OCc3cccc(-c4ccc(Cl)cc4)c3)CN2C(=O)N1c1cc(Cl)cc(Cl)c1	620
N#Cc1ccc(-c2cccc(CO[C@H]3C[C@H]4C(=O)N(c5cc(Cl)cc(Cl)c5)C(=O)N4C3)c2)cc1	270
O=C1[C@@H]2C[C@H](Oc3ccc(-c4ccc(Br)cc4)cc3)CN2C(=O)N1c1cc(Cl)cc(Cl)c1	480

q: I'd like to know its IC50. The compound in question is CN(Cc1cccc(-c2ccc(Br)cc2)c1)[C@H]1C[C@H]2C(=O)N(c3cc(Cl)cc(Cl)c3)C(=O)N2C1
a: 175

q: Also need O=C1[C@@H]2C[C@H](OCc3cccc(-c4ccc(Br)cc4)c3)CN2C(=O)N1c1cc(Cl)cc(Cl)c1 , thanks.
a: 85

q: Also need O=C1[C@@H]2C[C@H](SCc3cccc(-c4ccc(Br)cc4)c3)CN2C(=O)N1c1cc(Cl)cc(Cl)c1 , thanks.
a: 290
